Values from patent US12612368B2

# target-desc: NAMPT (Homo sapiens, UniProt P43490)
# Construct: purchased Abcam ab221819
# Sequence (P43490 whole entry): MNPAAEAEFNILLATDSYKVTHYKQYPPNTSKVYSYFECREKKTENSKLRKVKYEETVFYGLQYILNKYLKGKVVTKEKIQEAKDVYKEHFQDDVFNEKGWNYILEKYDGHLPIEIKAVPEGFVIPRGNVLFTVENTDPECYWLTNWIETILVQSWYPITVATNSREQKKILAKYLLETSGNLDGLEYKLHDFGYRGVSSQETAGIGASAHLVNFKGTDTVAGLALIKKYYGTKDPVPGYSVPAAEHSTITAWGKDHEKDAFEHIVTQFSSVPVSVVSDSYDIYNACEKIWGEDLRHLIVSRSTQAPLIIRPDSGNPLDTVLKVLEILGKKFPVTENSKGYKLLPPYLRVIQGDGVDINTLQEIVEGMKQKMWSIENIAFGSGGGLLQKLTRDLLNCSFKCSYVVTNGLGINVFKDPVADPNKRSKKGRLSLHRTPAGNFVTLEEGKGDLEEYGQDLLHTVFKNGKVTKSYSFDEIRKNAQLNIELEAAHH
# experiment-notes: NAMPT Activity Assay (Abcam #ab221819)
# Format: biochemical
# assay-setup: purified NAMPT, two-step reaction, OD450 nm; percent inhibition vs no drug; compound concentration not stated
endpoint-label: NAMPT Inhibition Code

As a guide, the following entries are already answered.
[[record]]
mol = "CC(=O)N(CC(C)C)c1ccc(-c2ccc(C(=O)NCc3cccnc3)cn2)cc1Cl"
recorded_value = "C (C = ≥66% inhibition)"

[[record]]
mol = "CCC(=O)N(C)c1ccc(-c2ccc(C(=O)NCc3ccc(C)nc3C)cc2)cc1Cl"
recorded_value = "A (A = <33% inhibition)"

[[record]]
mol = "CCC(=O)N(CCN)c1ccc(-c2ccc(C(=O)NCc3cccnc3)cn2)cc1C"
recorded_value = "A (A = <33% inhibition)"

[[record]]
mol = "CCC(=O)N(CCNC(=O)OC(C)(C)C)c1ccc(-c2ccc(C(=O)NCc3cccnc3)cc2)cc1"
recorded_value = "A (A = <33% inhibition)"

[[record]]
mol = "CCC(=O)N(C)c1ccc(-c2ccc(C(=O)NCc3cccnc3C)cc2)cc1Cl"
recorded_value = "A (A = <33% inhibition)"

[[record]]
mol = "COC(=O)c1cc(-c2ccc(C(=O)NCc3cccnc3C)cn2)ccc1N(C)C(C)=O"
recorded_value = "A (A = <33% inhibition)"

[[record]]
mol = "CCCN(C(C)=O)c1ccc(-c2ccc(C(=O)NCc3cccnc3C)cn2)cc1Cl"
recorded_value = "A (A = <33% inhibition)"

[[record]]
mol = "CC(C)N(C(=O)C(F)F)c1ccc(-c2ccc(C(=O)NCc3cccnc3)cn2)cc1Cl"
recorded_value = "C (C = ≥66% inhibition)"

[[record]]
mol = "CC(=O)N(c1ccc(-c2ccc(C(=O)NCc3cccnc3C)cn2)cc1C)C(C)C"
recorded_value = "A (A = <33% inhibition)"

[[record]]
mol = "CC(=O)N(CC(F)F)c1ccc(-c2ccc(C(=O)NCc3cccnc3C)cn2)cc1"
recorded_value = "A (A = <33% inhibition)"


Batch: NAMPT Inhibition Code for all items listed.
1. CC(=O)N(c1ccc(-c2ccc(C(=O)NCc3cccnc3)cc2)cc1Cl)C(C)C
2. CC(=O)N(c1ccc(-c2ccc(C(=O)NCc3cccnc3)cc2)cc1F)C(C)C

1: C (C = ≥66% inhibition); 2: C (C = ≥66% inhibition)
